Reference source for all entries: patent US7655643B2

Target: S. aureus 133 Translation
Experiment: S. aureus in vitro transcription-translation assay (firefly luciferase, S30 extract)
Format: biochemical
Conditions: Table B
recorded-metric: pIC50
Numbers only, as −log10 of the molar value.

1) NCCC[C@@H]1NC(=O)[C@@H](N)Cc2cc(ccc2O)-c2ccc(N)c(c2)C[C@@H](C(=O)NCCN)NC1=O :: 6.05
2) CN1C(=O)[C@H](C[C@@H](O)CN)NC(=O)[C@@H](N)Cc2cc(ccc2O)-c2ccc(Cl)c(c2)C[C@H]1C(=O)NCC(O)CN (stereo partly drawn) :: 6.52
3) NC[C@H](O)C[C@@H]1NC(=O)[C@@H](N)Cc2cc(ccc2O)-c2ccc(O)c(c2)C[C@@H](C(=O)O)NC1=O [Biphenomycin B, biphenomycin B, reference compound] :: 5.82
4) NCCNC(=O)[C@@H]1Cc2cc(ccc2F)-c2ccc(O)c(c2)C[C@H](N)C(=O)N[C@@H](C[C@@H](O)CN)C(=O)N1 :: 6.10
5) NCCNC(=O)[C@@H]1Cc2cccc(c2)-c2ccc(O)c(c2)C[C@H](N)C(=O)N[C@@H](C[C@@H](O)CN)C(=O)N1 :: 6.44

Would you kindly look at the next entry?
Task item: Entry `CN1C(=O)[C@H](CCCN)NC(=O)[C@@H](N)Cc2cc(ccc2O)-c2ccc(Cl)c(c2)C[C@H]1C(=O)NCCN(CCN)CCN` : reported pIC50 = ?
Reply: 7.10
